target_of_assay: Aurora-A kinase (Homo sapiens)
Construct: purchased Invitrogen (Carlsbad, CA, USA)
Sequence (O14965 1-403): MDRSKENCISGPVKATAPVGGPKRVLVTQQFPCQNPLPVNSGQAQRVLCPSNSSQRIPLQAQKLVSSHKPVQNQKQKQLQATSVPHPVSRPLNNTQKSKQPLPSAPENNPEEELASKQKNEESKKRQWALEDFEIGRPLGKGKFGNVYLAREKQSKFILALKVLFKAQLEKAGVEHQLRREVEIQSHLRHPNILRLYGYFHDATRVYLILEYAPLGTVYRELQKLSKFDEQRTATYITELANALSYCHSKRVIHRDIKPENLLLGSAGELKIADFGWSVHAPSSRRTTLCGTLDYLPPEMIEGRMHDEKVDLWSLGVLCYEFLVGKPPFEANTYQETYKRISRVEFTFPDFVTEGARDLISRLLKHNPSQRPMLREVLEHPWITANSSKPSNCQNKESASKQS
test_protocol: FRET-based Z'-LYTE kinase enzyme inhibition assay
Type: biochemical
condition_set: 10 µM, duplicates, Z'-LYTE
assay_metric: % Inhibition at 10 µM (%)

molecule	% Inhibition at 10 µM (%)
COc1ccc(CCc2ccc3cc(OC)ccc3n2)cc1	-5
CC(Cc1ccccc1)=NNS(=O)(=O)c1ccc([N+](=O)[O-])cc1	7

I: CCOc1ccc(N=C(C)Nc2ccc(OCC)cc2)cc1
II: CCCCNC(C(=O)c1ccc(OC)cc1)c1ccc(OC)cc1 (stereo not drawn)
Query :: Which of the two items, I and II , has the greater recorded % Inhibition at 10 µM? Kindly state the label of the option you pick.
Result :: I
